study.system: MERTK (Homo sapiens)
Sequence (Q12866 21-999): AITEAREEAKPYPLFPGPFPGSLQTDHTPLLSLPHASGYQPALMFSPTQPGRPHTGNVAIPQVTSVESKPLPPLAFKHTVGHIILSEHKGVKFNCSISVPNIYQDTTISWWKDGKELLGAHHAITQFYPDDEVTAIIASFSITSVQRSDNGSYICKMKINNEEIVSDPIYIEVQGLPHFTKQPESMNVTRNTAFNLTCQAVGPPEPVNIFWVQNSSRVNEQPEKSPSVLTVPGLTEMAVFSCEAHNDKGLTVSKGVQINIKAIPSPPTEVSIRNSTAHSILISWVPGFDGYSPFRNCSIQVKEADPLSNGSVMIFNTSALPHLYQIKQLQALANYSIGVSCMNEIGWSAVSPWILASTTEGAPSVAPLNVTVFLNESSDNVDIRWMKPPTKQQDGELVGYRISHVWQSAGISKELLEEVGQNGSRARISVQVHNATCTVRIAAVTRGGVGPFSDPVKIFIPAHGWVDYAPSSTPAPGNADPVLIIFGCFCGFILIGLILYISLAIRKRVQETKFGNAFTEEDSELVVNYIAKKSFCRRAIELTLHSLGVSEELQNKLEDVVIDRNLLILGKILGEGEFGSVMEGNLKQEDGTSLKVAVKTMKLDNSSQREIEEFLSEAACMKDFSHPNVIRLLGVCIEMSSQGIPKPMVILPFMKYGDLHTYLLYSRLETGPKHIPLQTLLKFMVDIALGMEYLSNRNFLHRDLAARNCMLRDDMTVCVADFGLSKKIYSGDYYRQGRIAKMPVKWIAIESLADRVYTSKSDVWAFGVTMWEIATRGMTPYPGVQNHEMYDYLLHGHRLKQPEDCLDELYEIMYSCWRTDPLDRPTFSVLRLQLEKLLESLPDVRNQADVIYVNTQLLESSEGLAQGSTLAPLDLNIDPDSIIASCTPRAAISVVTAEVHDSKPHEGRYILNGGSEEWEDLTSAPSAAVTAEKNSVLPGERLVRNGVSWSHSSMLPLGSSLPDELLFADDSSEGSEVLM
experimental.protocol: TR-FRET kinase activity assay, MERTK
Type: biochemical
measurement.setup: ratio calculated as FLT3 IC50/Mer IC50

smiles.notation	Mer/Flt3 ratio (FLT3 IC50/Mer IC50)
C[C@@H](CC(F)(F)F)Nc1ncc2c(O[C@H]3C[C@@H](O)C3)ncc([C@H]3CC[C@@](C)(O)CC3)c2n1	+++ (a ratio of >100)
CC(C)(C)Nc1ncc2c(OC3CCNCC3)ncc([C@H]3CC[C@H](O)CC3)c2n1	+++ (a ratio of >100)
C[C@@H](CC(F)(F)F)Nc1ncc2c(O[C@H]3C[C@@H](O)C3)ncc([C@H]3CC[C@H](O)CC3)c2n1	+++ (a ratio of >100)
